meta.source: ChEMBL document CHEMBL3098122

- Target Or Test System: Low molecular weight phosphotyrosine protein phosphatase (Homo sapiens, UniProt P24666)
- Sequence (P24666 whole entry): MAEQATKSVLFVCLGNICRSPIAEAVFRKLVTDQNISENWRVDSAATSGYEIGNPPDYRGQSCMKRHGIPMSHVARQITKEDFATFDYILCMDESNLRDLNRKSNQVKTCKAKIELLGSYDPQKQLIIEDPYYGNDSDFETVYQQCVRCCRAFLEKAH
- Assay Notes: Inhibition of human recombinant LMW-PTP IF1 expressed in Escherichia coli TB1 using p-nitrophenylphosphate as substrate
Could you mark each record Met if its IC50 falls strictly under 10 µM, and Not met if it equals or exceeds it?

Solved cases (5 shown):
O=C(O)c1ccc(CN2C(=O)S/C(=C\c3cccc(OCCc4ccccc4)c3)C2=O)cc1    Not met
O=C(O)c1ccc(CN2C(=O)S/C(=C\c3ccc(OCCc4ccccc4)cc3)C2=O)cc1    Not met
COc1cc(/C=C2\SC(=O)N(Cc3ccc(C(=O)O)cc3)C2=O)ccc1OCc1ccccc1    Not met
O=C(O)c1ccc(CN2C(=O)/C(=C/c3ccc(OCCc4ccccc4)cc3)S/C2=N\c2ccccc2)cc1    Met
COc1cc(/C=C2\S/C(=N\c3ccccc3)N(Cc3ccc(C(=O)O)cc3)C2=O)ccc1OCc1ccccc1    Met

With those in mind, consider the next molecule.
(Q) Does the reported IC50 of COc1ccc(/C=C2\S/C(=N\c3ccccc3)N(Cc3ccc(C(=O)O)cc3)C2=O)cc1OCc1ccccc1 stay below 10 µM?
(A) Met
